- test_target: 5-hydroxytryptamine receptor 1A (Homo sapiens) (UniProt P08908)
- Sequence (P08908 whole entry): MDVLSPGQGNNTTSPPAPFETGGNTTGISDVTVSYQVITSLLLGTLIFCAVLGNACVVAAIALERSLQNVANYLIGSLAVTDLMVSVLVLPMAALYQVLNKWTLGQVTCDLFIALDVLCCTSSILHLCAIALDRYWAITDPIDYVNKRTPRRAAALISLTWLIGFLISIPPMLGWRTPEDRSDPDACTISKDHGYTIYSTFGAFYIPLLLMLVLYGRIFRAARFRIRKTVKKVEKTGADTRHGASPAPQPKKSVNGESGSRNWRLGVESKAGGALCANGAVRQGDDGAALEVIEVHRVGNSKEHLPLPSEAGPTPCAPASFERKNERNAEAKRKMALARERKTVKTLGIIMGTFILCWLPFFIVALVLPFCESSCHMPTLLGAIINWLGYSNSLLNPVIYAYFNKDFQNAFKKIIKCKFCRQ
- experiment: Antagonist activity at human 5-HT1A receptor expressed in CHO-K1 cells co-expressing Galpha16 assessed as decrease in serotonin-induced calcium mobilization preincubated for 25 mins followed by serotonin challenge measured for 30 secs by aequorin-derived luminescence assay relative to control
- Assay type: functional, cell-based
Quick rule for you: Emax at 4% or higher means label 1, lower means label 0.

{"columns": ["smiles_code", "test_target", "answer_label"],
 "data": [
  ["COc1ccccc1N1CCN(C[C@@H](C(=O)NC(C)(C)C)c2ccccc2)CC1", "5-hydroxytryptamine receptor 1A (Homo sapiens) (UniProt P08908)", "label 0"],
  ["COc1ccc(N2CCN(CCCOc3c(C)cc(C)cc3C)CC2)cc1.Cl.Cl", "5-hydroxytryptamine receptor 1A (Homo sapiens) (UniProt P08908)", "label 1"],
  ["COc1ccccc1N1CCN(CCCOc2ccc(C)cc2C)CC1.Cl", "5-hydroxytryptamine receptor 1A (Homo sapiens) (UniProt P08908)", "label 0"],
  ["COc1ccccc1N1CCN(CCOCCOc2c(C)cc(C)cc2C)CC1.Cl.Cl", "5-hydroxytryptamine receptor 1A (Homo sapiens) (UniProt P08908)", "label 1"],
  ["Cc1cc(C)c(OCCOCCN2CCN(CCc3ccccc3)CC2)c(C)c1.Cl.Cl", "5-hydroxytryptamine receptor 1A (Homo sapiens) (UniProt P08908)", "label 1"]
]}

# next molecule below
Does the molecule Cc1cc(OCCCN2CCN(c3ccccc3)CC2)ccc1Cl.Cl.Cl have recorded Emax that is 4% or more?
label 1
